Target: T1, human GIP receptor (human, UniProt P48546 22-466)
T1 construct: whole, on cells; also called hGIPR
T1 sequence (looked up): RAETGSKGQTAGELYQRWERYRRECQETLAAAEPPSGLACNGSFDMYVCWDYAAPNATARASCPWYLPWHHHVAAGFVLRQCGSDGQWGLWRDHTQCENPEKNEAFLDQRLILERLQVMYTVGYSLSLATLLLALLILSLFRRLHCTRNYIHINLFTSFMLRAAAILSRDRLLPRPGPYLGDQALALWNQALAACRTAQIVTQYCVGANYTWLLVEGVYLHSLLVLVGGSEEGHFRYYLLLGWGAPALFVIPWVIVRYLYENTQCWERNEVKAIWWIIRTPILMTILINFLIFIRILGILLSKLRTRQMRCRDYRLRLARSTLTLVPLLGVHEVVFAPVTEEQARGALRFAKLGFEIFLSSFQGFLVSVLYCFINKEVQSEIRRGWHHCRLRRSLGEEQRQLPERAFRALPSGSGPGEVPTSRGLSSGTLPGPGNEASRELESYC
Test: displacement of [125I]GIP from HEK-293 membranes expressing hGIPR (SPA beads)
Numbered stars: 1 amine (or outer) side, 2 acyl side, 3 side chain; on linkers, the order of the positions; unused ones are H or OH. Square brackets hold non-standard residues; d marks the D form. Side chains are listed from the residue outwards. * marks the point of attachment. C18 diacid = O=C(O)CCCCCCCCCCCCCCCCC(=O)*; γGlu = O=C(O)[C@H](CCC(=O)[*:2])N[*:1]; Iva = CC[C@](C)(N)C(=O)O; AEEA = NCCOCCOCC(=O)O; Aib = CC(C)(N)C(=O)O
metricName: pIC50
One number for each entry, as −log10 of the molar value.

Short answer for H-Y[Aib]EGT[Iva]ISDLSI[Aib]K([AEEA-AEEA-γGlu-C18 diacid])DRIHQEEFIEWLLAQGPSSGAPPPS-NH2 (Synthetic peptide, 39 residues) [SEQ ID NO: 24] : pIC50 was 10.00
